I'd be grateful if you could share measured pIC50 for these entries.
Molecular target: CDK2/Cyclin E1 (Homo sapiens (Human), UniProt P24941)
Test: CDK2/Cyclin E1 HTRF enzyme activity assay (Example A)
Conditions: 1 mM ATP
pIC50: −log10 of the molar value.

Just so you know, measured pIC50 for CS(=O)(=O)N1CC[C@@H](Nc2ncc(C(F)(F)F)c(-c3cn(-c4ccc(C#N)cc4Cl)cn3)n2)[C@H](F)C1 came out at ≥ 7.30

# pIC50 of CS(=O)(=O)N1CCC(Nc2ncc(C(F)(F)F)c(-c3cn(-c4ccc(N5CC[C@@H](O)C5)cc4Cl)cn3)n2)CC1 = ≥ 7.30

Reported pIC50 of CC1(O)CN(Cc2cccc(-n3cnc(-c4nc(NC5CCN(S(C)(=O)=O)CC5)ncc4C(F)(F)F)c3)c2Cl)C1 : ≥ 7.30

Memo: CS(=O)(=O)N1CC[C@H](Nc2ncc(C(F)(F)F)c(-c3cn(-c4ccccc4C#N)cn3)n2)[C@H](F)C1 , reported pIC50: ≥ 7.30

// pIC50 value for CNC(C)c1ccc(-n2cnc(-c3nc(NC4CCN(S(C)(=O)=O)CC4)ncc3C(F)(F)F)c2)c(Cl)c1 (single isomer, unassigned) [Example 276] : ≥ 7.30

Form field pIC50, entry CS(=O)(=O)N1CCC(Nc2ncc(C(F)(F)F)c(-c3cn(-c4ccc(CN5CCCCC5)cc4Cl)cn3)n2)CC1 : ≥ 7.30

pIC50 measured on Cc1c(-c2nc(NC3CCN(S(C)(=O)=O)CC3)ncc2C(F)(F)F)ncn1C = 6.70 to 7.30

// pIC50 lookup, compound = CC(=O)Nc1nccc(-n2cnc(-c3nc(NC4CCN(S(=O)(=O)c5cn(C)cn5)CC4)ncc3C(F)(F)F)c2)c1C , result: ≥ 7.30

Form: compound = COC1CN(Cc2ccc(-n3cc(-c4nc(NC5CCN(S(C)(=O)=O)CC5)ncc4C(F)(F)F)nc3C)c(F)c2)C1 ; pIC50 = ≥ 7.30

# pIC50 (compound: CCNCc1cc(F)c(-n2cnc(-c3nc(N[C@@H]4CCN(S(C)(=O)=O)C[C@H]4F)ncc3C(F)(F)F)c2)c(Cl)c1 ) is ≥ 7.30

CS(=O)(=O)N1CCC(Nc2ncc(C(F)(F)F)c(-c3cn(-c4ccnc(N5CCOCC5)c4C#N)cn3)n2)CC1 yielded pIC50 of ≥ 7.30

For record CN1CC(c2ccc(-n3cnc(-c4nc(NC5CCN(S(C)(=O)=O)CC5)ncc4C(F)(F)F)c3)c(C#N)c2)C1 the listed pIC50 is ≥ 7.30

Notebook: CS(=O)(=O)N1CCC(Nc2ncc(C(F)(F)F)c(-c3cn(-c4ccc(CN5CCOC5=O)cc4Cl)cn3)n2)CC1 , pIC50 read as ≥ 7.30

// CNCc1cccc(-n2cnc(-c3nc(NC4CCN(S(C)(=O)=O)CC4)ncc3C(F)(F)F)c2)c1Cl : pIC50 value = ≥ 7.30

---

Molecular target: CDK2/Cyclin E1 (Homo sapiens (Human), UniProt P24941)
Test: CDK2/Cyclin E1 HTRF enzyme activity assay (Example A)
Conditions: 1 mM ATP
Could you please report measured IC50 for the items listed next?

get_value(item= CN1CCC(c2ccc(-n3cnc(-c4nc(NC5CCN(S(C)(=O)=O)CC5)ncc4C(F)(F)F)c3)c(Cl)c2)CC1 , readout=IC50) returns ≤ 50 nM

Quick note, IC50 for CCS(=O)(=O)N1CCC(Nc2ncc(C(F)(F)F)c(-c3cn(-c4ccc(C)nc4C#N)cn3)n2)CC1 landed at ≤ 50 nM

Value of IC50 reported for the compound CC1(O)CN(Cc2ccc(-n3cnc(-c4nc(NC5CCN(S(C)(=O)=O)CC5)ncc4C(F)(F)F)c3)c(Cl)c2)C1 is ≤ 50 nM

For record CS(=O)(=O)N1CCC(Nc2ncc(C(F)(F)F)c(-c3cn(-c4ccc(CN5CCC5)nc4C(F)(F)F)cn3)n2)CC1 the listed IC50 is ≤ 50 nM

Consider Cc1nc(-c2nc(NC3CCN(S(C)(=O)=O)CC3)ncc2C(F)(F)F)cn1-c1ccc(-c2ccnn2C)cc1F . Its measured IC50 is ≤ 50 nM

Memo: Cc1cc(CN2CCC2)ccc1-n1cc(-c2nc(NC3CCN(S(C)(=O)=O)CC3)ncc2C(F)(F)F)nc1C , reported IC50: ≤ 50 nM

IC50 for COC1CN(Cc2ccc(-n3cnc(-c4nc(NC5CCN(S(C)(=O)=O)CC5)ncc4C(F)(F)F)c3)c(Cl)c2)C1 is ≤ 50 nM

The measured IC50 associated with CN(C)Cc1ccc(-n2cnc(-c3nc(NC4CCN(S(C)(=O)=O)CC4)ncc3C(F)(F)F)c2)c(F)c1 reads ≤ 50 nM

// recorded IC50 for CS(=O)(=O)N1CC[C@H](Nc2ncc(C(F)(F)F)c(-c3cn(-c4cccnc4C(F)F)cn3)n2)[C@H](F)C1 : ≤ 50 nM

IC50 reported for this compound COc1nccc(-n2cnc(-c3nc(N[C@H]4CCN(S(C)(=O)=O)C[C@H]4F)ncc3C(F)(F)F)c2)c1C#N : ≤ 50 nM

Record CC1(O)CN(Cc2cccc(-n3cnc(-c4nc(NC5CCN(S(C)(=O)=O)CC5)ncc4C(F)(F)F)c3)c2C(F)(F)F)C1 , field IC50: ≤ 50 nM

Item: COc1ccc(-n2cnc(-c3nc(NC4CCN(S(C)(=O)=O)CC4)ncc3C(F)(F)F)c2)c(Cl)c1 | IC50: ≤ 50 nM

Quick note, IC50 for CC(C)(O)Cn1cnc(-c2nc(NC3CCN(S(C)(=O)=O)CC3)ncc2C(F)(F)F)c1 landed at ≤ 50 nM

Value of IC50 reported for the compound Cn1nccc1-c1ccc(-n2cnc(-c3nc(NC4CCN(S(C)(=O)=O)CC4)ncc3C(F)(F)F)c2)c(Cl)c1 is ≤ 50 nM
